target: EGFR (Human), P00533 [Assessment of EGFR-Del T790M Dependent Cell Proliferation in BaF3 Cells]
Sequence (P00533 whole entry, looked up, stated change not applied): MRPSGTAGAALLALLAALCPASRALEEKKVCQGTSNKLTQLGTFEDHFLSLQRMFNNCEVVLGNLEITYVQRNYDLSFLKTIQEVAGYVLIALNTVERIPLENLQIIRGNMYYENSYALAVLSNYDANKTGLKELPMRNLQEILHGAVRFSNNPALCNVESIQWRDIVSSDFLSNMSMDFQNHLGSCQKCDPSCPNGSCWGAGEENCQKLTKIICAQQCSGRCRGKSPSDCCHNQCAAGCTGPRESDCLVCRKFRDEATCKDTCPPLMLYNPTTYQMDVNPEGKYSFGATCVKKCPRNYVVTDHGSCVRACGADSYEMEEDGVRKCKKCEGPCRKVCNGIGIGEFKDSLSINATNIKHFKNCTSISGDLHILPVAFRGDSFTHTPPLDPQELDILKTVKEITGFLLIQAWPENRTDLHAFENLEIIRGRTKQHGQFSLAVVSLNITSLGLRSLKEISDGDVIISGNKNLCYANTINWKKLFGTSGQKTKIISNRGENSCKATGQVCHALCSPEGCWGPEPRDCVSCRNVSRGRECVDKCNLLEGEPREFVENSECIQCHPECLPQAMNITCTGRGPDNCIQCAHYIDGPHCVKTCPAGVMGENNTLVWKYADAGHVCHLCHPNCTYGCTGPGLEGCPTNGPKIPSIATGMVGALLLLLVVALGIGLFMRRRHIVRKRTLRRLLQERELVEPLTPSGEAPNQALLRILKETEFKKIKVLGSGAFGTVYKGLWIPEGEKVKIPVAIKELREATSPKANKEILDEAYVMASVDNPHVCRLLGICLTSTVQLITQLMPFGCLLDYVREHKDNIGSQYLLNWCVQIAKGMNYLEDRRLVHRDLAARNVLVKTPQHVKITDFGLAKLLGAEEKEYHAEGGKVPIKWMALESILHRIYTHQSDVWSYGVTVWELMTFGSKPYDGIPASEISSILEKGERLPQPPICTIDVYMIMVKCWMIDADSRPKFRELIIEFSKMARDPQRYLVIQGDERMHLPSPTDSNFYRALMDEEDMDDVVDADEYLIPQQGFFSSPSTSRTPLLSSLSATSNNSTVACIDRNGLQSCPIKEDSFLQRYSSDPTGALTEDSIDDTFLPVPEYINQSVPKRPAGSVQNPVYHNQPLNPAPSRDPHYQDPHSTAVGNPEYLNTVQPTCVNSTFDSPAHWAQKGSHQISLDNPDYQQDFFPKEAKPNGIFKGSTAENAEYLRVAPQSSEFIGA
Assay Metric: IC50

Below, each entry is followed by its recorded IC50 result.
COc1cc(F)c(NC(=O)C#CCCN2CCCCC2)cc1Nc1ncc(Cl)c(Nc2ccccc2P(C)(C)=O)n1	< 50 nM
C=CC(=O)Nc1cc(Nc2ncc(Cl)c(Nc3ccccc3P(C)(C)=O)n2)c(OC)cc1C	< 50 nM
C=CC(=O)Nc1cc(Nc2ncc(Cl)c(Nc3ccccc3P(C)(C)=O)n2)c(OC)cc1N1CCC(N2CCOCC2)CC1	< 50 nM
CCOC(=O)/C=C/C(=O)Nc1ccc(OC)c(Nc2ncc(Cl)c(Nc3ccccc3P(C)(C)=O)n2)c1	< 50 nM
COc1ccc(NC(=O)/C=C/C(=O)N2CCN(C)CC2)cc1Nc1ncc(Cl)c(Nc2ccccc2P(C)(C)=O)n1	101 to 250 nM
COc1cc(N2CCOCC2)c(NC(=O)C#CCCN(C)C)cc1Nc1ncc(Cl)c(Nc2ccccc2P(C)(C)=O)n1	< 50 nM
CC#CC(=O)Nc1cc(Nc2ncc(Cl)c(Nc3ccccc3P(C)(C)=O)n2)c(OC)cc1N1CCC(N(C)C)C1 (configuration not stated)	< 50 nM
C=C(C)C(=O)Nc1cc(Nc2ncc(Cl)c(Nc3ccccc3P(C)(C)=O)n2)c(OC)cc1N1CC[C@@H](N(C)C)C1	< 50 nM

## Input What value of IC50 has been recorded for this entry: `C=CC(=O)Nc1ccc(CC)c(Nc2ncc(Cl)c(Nc3ccccc3P(C)(C)=O)n2)c1`
## Output < 50 nM

## Input What value of IC50 has been recorded for this entry: `C=CC(=O)Nc1cc(Nc2ncc(Cl)c(Nc3ccccc3P(C)(C)=O)n2)c(OC)cc1C#CCN1CCCCC1`
## Output < 50 nM

## Input What value of IC50 has been recorded for this entry: `C=C(CN1CCN(S(C)(=O)=O)CC1)C(=O)Nc1ccc(OC)c(Nc2ncc(Cl)c(Nc3ccccc3P(C)(C)=O)n2)c1`
## Output < 50 nM

## Input What value of IC50 has been recorded for this entry: `COCCC#CC(=O)Nc1cc(Nc2ncc(Cl)c(Nc3ccccc3P(C)(C)=O)n2)c(OC)cc1N1CCOCC1`
## Output < 50 nM

## Input What value of IC50 has been recorded for this entry: `C=CC(=O)Nc1cc(Nc2ncc(Cl)c(Nc3ccccc3P(C)(C)=O)n2)c(OC)cc1C#CC(C)(C)N`
## Output < 50 nM

## Input What value of IC50 has been recorded for this entry: `C=CC(=O)Nc1ccc(Cl)c(Nc2ncc(Cl)c(Nc3ccccc3P(C)(C)=O)n2)c1`
## Output < 50 nM

## Input What value of IC50 has been recorded for this entry: `C=C(CN1CCCCC1)C(=O)Nc1ccc(OC)c(Nc2ncc(Cl)c(Nc3ccccc3P(C)(C)=O)n2)c1`
## Output < 50 nM

## Input What value of IC50 has been recorded for this entry: C=CC(=O)Nc1cc(Nc2ncc(Cl)c(Nc3ccccc3P(C)(C)=O)n2)c(OC)cc1OC1CCCN(C)C1 (configuration not stated)
## Output < 50 nM

## Input What value of IC50 has been recorded for this entry: `C=CC(=O)Nc1ccc(OC)c(Nc2ncc(Cl)c(Nc3ccc(OCCN4CCCCC4)cc3P(C)(C)=O)n2)c1`
## Output < 50 nM

----------
# IC50 per entry
molecular target: EGFR (Human), P00533 [Assessment of EGFR-Del T790M Dependent Cell Proliferation in BaF3 Cells]

Below, each entry is followed by its recorded IC50 result.
C=CC(=O)Nc1cc(Nc2ncc(Cl)c(Nc3ccccc3P(C)(C)=O)n2)c(OC)cc1OCC1CCCCN1C (stereo not drawn)	< 50 nM
C=CC(=O)Nc1ccc(OC)c(Nc2ncc(Cl)c(Nc3ccc(OCC4CCOCC4)cc3P(C)(C)=O)n2)c1	< 50 nM
C=CC(=O)Nc1cc(Nc2ncc(Cl)c(Nc3ccccc3P(C)(C)=O)n2)c(OC)cc1C#CCN1CCCC1	< 50 nM
COc1cc(F)c(NC(=O)C#CC(C)(C)N2CCCC2)cc1Nc1ncc(Cl)c(Nc2ccccc2P(C)(C)=O)n1	< 50 nM
C=CC(=O)Nc1ccc(OC(F)(F)F)c(Nc2ncc(Cl)c(Nc3ccccc3P(C)(C)=O)n2)c1	< 50 nM

## Input What value of IC50 has been recorded for this entry: `C=CC(=O)Nc1cc(Nc2ncc(Cl)c(Nc3ccccc3P(C)(C)=O)n2)c(OC)cc1C#CCNC`
## Output < 50 nM

## Input What value of IC50 has been recorded for this entry: `C=CC(=O)Nc1ccc(F)c(Nc2ncc(Cl)c(Nc3ccccc3P(C)(C)=O)n2)c1`
## Output < 50 nM

## Input What value of IC50 has been recorded for this entry: `C=CC(=O)Nc1cc(Nc2ncc(Cl)c(Nc3ccc(OCCN4CCCC4)cc3P(C)(C)=O)n2)c(OC)cc1F`
## Output < 50 nM

----------
Let's go through some recorded pIC50 values for EGFR (human), P00533 [L858R] together.
pIC50: −log10 of the molar value.

Below, each entry is followed by its recorded pIC50 result.
C=CC(=O)Nc1cc(Nc2ncc(Cl)c(Nc3ccccc3P(C)(C)=O)n2)c(OC)cc1OCCN1CCCC1	> 7.30
CC#CC(=O)Nc1cc(Nc2ncc(Cl)c(Nc3ccccc3P(C)(C)=O)n2)c(OC)cc1OCCN1CCCC1	> 7.30
C=CC(=O)Nc1cc(Nc2ncc(C3CC3)c(Nc3ccccc3P(C)(C)=O)n2)c(OC)cc1N(C)CCN(CC)CC	> 7.30
COc1ccc(NC(=O)/C=C\C(=O)NCCN(C)C)cc1Nc1ncc(Cl)c(Nc2ccccc2P(C)(C)=O)n1	> 7.30
CC#CC(=O)Nc1cc(Nc2ncc(Cl)c(Nc3ccccc3P(C)(C)=O)n2)c(OC)cc1N1CCC(N(C)C)C1 (stereo not drawn)	> 7.30
COc1cc(C)c(NC(=O)CCl)cc1Nc1ncc(Cl)c(Nc2ccccc2P(C)(C)=O)n1	> 7.30
COCC1CCCN1CCC#CC(=O)Nc1cc(Nc2ncc(Cl)c(Nc3ccccc3P(C)(C)=O)n2)c(OC)cc1N1CCOCC1 (stereo not drawn)	> 7.30

# input for lookup
## Input What value of pIC50 has been recorded for this entry: `COc1ccc(NC(=O)/C=C/C2(N)CC2)cc1Nc1ncc(Cl)c(Nc2ccccc2P(C)(C)=O)n1`
## Output > 7.30

----------
biological target: EGFR (Human), P00533 [T790M/L858R]; settings: baf3
Sequence (P00533 whole entry T790M/L858R, looked up): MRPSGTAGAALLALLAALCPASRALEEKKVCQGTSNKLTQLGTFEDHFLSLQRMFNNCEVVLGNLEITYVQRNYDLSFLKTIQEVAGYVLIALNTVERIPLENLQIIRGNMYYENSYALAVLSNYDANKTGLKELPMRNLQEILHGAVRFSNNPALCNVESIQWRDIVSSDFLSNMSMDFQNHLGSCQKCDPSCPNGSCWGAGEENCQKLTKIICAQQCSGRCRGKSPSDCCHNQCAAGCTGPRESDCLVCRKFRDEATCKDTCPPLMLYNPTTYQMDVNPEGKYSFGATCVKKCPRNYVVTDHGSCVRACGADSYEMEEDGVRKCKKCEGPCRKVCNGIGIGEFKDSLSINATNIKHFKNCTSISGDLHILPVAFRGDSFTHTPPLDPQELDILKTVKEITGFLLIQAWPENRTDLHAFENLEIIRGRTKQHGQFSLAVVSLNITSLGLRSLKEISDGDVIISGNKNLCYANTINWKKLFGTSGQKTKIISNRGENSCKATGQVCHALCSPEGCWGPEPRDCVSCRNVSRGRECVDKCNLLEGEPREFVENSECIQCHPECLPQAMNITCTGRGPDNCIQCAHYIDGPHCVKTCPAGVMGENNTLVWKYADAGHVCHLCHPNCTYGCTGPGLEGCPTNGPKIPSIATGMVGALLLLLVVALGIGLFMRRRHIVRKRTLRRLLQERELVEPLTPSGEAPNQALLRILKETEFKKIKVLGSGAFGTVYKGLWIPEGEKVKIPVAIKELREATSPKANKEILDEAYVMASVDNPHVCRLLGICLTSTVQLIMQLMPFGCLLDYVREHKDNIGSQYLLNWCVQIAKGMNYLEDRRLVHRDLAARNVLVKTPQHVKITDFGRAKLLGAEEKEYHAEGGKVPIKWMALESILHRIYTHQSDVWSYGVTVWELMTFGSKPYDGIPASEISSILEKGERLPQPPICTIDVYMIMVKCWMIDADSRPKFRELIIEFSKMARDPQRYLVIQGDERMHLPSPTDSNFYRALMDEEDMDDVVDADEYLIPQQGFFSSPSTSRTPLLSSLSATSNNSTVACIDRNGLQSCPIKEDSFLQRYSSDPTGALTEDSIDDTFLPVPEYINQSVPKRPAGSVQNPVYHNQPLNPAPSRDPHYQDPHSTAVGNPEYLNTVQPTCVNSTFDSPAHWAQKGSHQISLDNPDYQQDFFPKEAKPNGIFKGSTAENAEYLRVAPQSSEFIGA
# IC50 per entry

C=CC(=O)Nc1cc(Nc2ncc(Cl)c(Nc3ccccc3P(C)(C)=O)n2)c(OC)cc1C#CC(C)(C)N(CC)CC	< 50 nM
COc1cc(F)c(NC(=O)CCl)cc1Nc1ncc(Cl)c(Nc2ccccc2P(C)(C)=O)n1	< 50 nM
C=C(C)C(=O)Nc1cc(Nc2ncc(Cl)c(Nc3ccccc3P(C)(C)=O)n2)c(OC)cc1N1CC[C@@H](N(C)C)C1	< 50 nM
C=CC(=O)Nc1cc(Nc2ncc(Cl)c(Nc3ccccc3P(C)(C)=O)n2)c(OC)cc1N1CCC(N(C)CCOC)C1 (configuration not stated)	< 50 nM
C=CC(=O)Nc1cc(Nc2ncc(Cl)c(Nc3ccccc3P(C)(C)=O)n2)c(C)cc1C#CCN(C)C	< 50 nM
C=C(CN1CCN(CCO)CC1)C(=O)Nc1ccc(OC)c(Nc2ncc(Cl)c(Nc3ccccc3P(C)(C)=O)n2)c1	< 50 nM
COc1ccc(NC(=O)C#Cc2ccccc2)cc1Nc1ncc(Cl)c(Nc2ccccc2P(C)(C)=O)n1	< 50 nM
C=CC(=O)Nc1cc(Nc2ncc(Cl)c(Nc3ccccc3P(C)(C)=O)n2)c(C)cc1OC(COC)CN(C)C (configuration not stated)	< 50 nM

## Input What value of IC50 has been recorded for this entry: `C=CC(=O)Nc1cc(Nc2ncc(Cl)c(Nc3ccccc3P(C)(C)=O)n2)c(OC)cc1C#CCN1CCCCC1`
## Output < 50 nM

## Input What value of IC50 has been recorded for this entry: `C=CC(=O)Nc1cc(Nc2ncc(Cl)c(Nc3ccccc3P(C)(C)=O)n2)c(OC)cc1OCCCN1CCOCC1`
## Output 101 to 250 nM

----------
biological target: EGFR (Human), P00533 [Assessment of EGFR-Del T790M Dependent Cell Proliferation in BaF3 Cells]
Assay Metric: IC50

Below, each entry is followed by its recorded IC50 result.
COc1cc(C)c(NC(=O)CCl)cc1Nc1ncc(C)c(Nc2ccccc2P(C)(C)=O)n1	< 50 nM
C=C(Cl)C(=O)Nc1ccc(OC)c(Nc2ncc(Cl)c(Nc3ccccc3P(C)(C)=O)n2)c1	< 50 nM
CC#CC(=O)Nc1cc(Nc2ncc(Cl)c(Nc3ccccc3P(C)(C)=O)n2)c(OC)cc1OCC1CCOCC1	< 50 nM
C=CC(=O)Nc1ccc(OC)c(Nc2ncc(Cl)c(Nc3ccc(OC4CCOC4)cc3P(C)(C)=O)n2)c1 (stereo not given)	< 50 nM
C=CC(=O)Nc1cc(Nc2ncc(Cl)c(Nc3ccccc3P(C)(C)=O)n2)c(OC)cc1C#CCN(CC)CC	< 50 nM
C=CC(=O)Nc1cc(Nc2ncc(Cl)c(Nc3ccccc3P(C)(C)=O)n2)c(OC)cc1OCCN1CCOCC1	50 to 100 nM
C=CC(=O)Nc1cc(Nc2ncc(Cl)c(Nc3ccccc3P(C)(C)=O)n2)c(OC)cc1OCc1cccnc1	50 to 100 nM
COc1cc(N2CCOCC2)c(NC(=O)C#CCN(C)C)cc1Nc1ncc(Cl)c(Nc2ccccc2P(C)(C)=O)n1	< 50 nM

## Input What value of IC50 has been recorded for this entry: C=CC(=O)Nc1cc(Nc2ncc(Cl)c(Nc3ccccc3P(C)(C)=O)n2)c(OC)cc1N1CCC(O)C1 (stereo not given)
## Output 50 to 100 nM

## Input What value of IC50 has been recorded for this entry: `C=CC(=O)Nc1cc(Nc2ncc(Cl)c(Nc3ccccc3P(C)(C)=O)n2)c(OC)cc1C#CCN(C)CC`
## Output < 50 nM

## Input What value of IC50 has been recorded for this entry: `C=CC(=O)Nc1cc(Nc2ncc(Cl)c(Nc3ccccc3P(C)(C)=O)n2)c(OC)cc1C#CCN(C)C1CCCC1`
## Output < 50 nM

## Input What value of IC50 has been recorded for this entry: `C=CC(=O)Nc1cc(Nc2ncc(Cl)c(Nc3ccccc3P(C)(C)=O)n2)c(OC)cc1C#CCCN(C)C`
## Output < 50 nM

## Input What value of IC50 has been recorded for this entry: `C=CC(=O)Nc1cc(Nc2ncc(Cl)c(Nc3ccccc3P(C)(C)=O)n2)c(OC)cc1OCc1ccncc1`
## Output < 50 nM

## Input What value of IC50 has been recorded for this entry: `C=CC(=O)Nc1cc(Nc2ncc(Cl)c(Nc3ccccc3P(C)(C)=O)n2)c(OC)cc1O[C@@H]1CCCN(C)C1`
## Output < 50 nM

## Input What value of IC50 has been recorded for this entry: C=CC(=O)Nc1cc(Nc2ncc(Cl)c(Nc3ccccc3P(C)(C)=O)n2)c(OC)cc1OC1CCN(C)C1 (stereo not given)
## Output < 50 nM

## Input What value of IC50 has been recorded for this entry: C=CC(=O)Nc1cc(Nc2ncc(Cl)c(Nc3ccccc3P(C)(C)=O)n2)c(OC)cc1OC(COC)CN(C)C (stereo not given)
## Output < 50 nM

## Input What value of IC50 has been recorded for this entry: `COCC#CC(=O)Nc1cc(Nc2ncc(Cl)c(Nc3ccccc3P(C)(C)=O)n2)c(OC)cc1N1CCOCC1`
## Output < 50 nM

## Input What value of IC50 has been recorded for this entry: `C=CC(=O)Nc1cc(Nc2ncc(Cl)c(Nc3ccccc3P(C)(C)=O)n2)c(OC)cc1CCN1CCN(C)CC1`
## Output 101 to 250 nM

## Input What value of IC50 has been recorded for this entry: `CC#CC(=O)Nc1cc(Nc2ncc(Cl)c(Nc3ccccc3P(C)(C)=O)n2)c(OC)cc1OCCN1CCCC1`
## Output < 50 nM

## Input What value of IC50 has been recorded for this entry: `C=CC(=O)Nc1ccc(OC)c(Nc2ncc(Cl)c(Nc3ccc(OCCCN(C)C)cc3P(C)(C)=O)n2)c1`
## Output < 50 nM

## Input What value of IC50 has been recorded for this entry: C=CC(=O)Nc1cc(Nc2ncc(Cl)c(Nc3ccccc3P(C)(C)=O)n2)c(OC)cc1N1CCC(N(C)CCN(CC)CC)C1 (stereo not given)
## Output < 50 nM

## Input What value of IC50 has been recorded for this entry: C=CC(=O)Nc1cc(Nc2ncc(Cl)c(Nc3ccccc3P(C)(C)=O)n2)c(OC)cc1OC1CCCN(CCOC)C1 (stereo not given)
## Output < 50 nM

## Input What value of IC50 has been recorded for this entry: `C=CC(=O)Nc1cc(Nc2ncc(Cl)c(Nc3ccccc3P(C)(C)=O)n2)c(OC)cc1C#CC(C)(C)N1CCCC1`
## Output < 50 nM

## Input What value of IC50 has been recorded for this entry: `C=C(CN1CCCC1)C(=O)Nc1ccc(OC)c(Nc2ncc(Cl)c(Nc3ccccc3P(C)(C)=O)n2)c1`
## Output < 50 nM

## Input What value of IC50 has been recorded for this entry: C=CC(=O)Nc1cc(Nc2ncc(Cl)c(Nc3ccccc3P(C)(C)=O)n2)c(OC)cc1N1CCC(N2CCC(O)CC2)C1 (stereo not given)
## Output 101 to 250 nM
